# subject_of_test: MpEPSPS (Marchantia polymorpha, UniProt A0A2R6X5Y9)
# Sequence (A0A2R6X5Y9 79-527): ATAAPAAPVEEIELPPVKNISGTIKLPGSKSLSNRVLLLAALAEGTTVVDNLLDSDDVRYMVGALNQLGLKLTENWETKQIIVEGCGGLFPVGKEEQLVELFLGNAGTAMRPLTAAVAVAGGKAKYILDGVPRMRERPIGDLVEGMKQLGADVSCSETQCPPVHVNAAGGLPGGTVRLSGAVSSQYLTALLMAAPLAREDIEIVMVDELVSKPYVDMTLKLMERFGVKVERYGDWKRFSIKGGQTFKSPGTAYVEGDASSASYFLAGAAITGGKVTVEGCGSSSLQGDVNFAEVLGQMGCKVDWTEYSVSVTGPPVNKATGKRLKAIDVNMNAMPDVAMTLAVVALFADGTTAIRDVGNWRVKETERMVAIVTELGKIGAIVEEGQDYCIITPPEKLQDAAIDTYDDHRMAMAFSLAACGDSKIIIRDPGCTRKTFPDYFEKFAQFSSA
measured_endpoint: IC50 (µM)
Give the quantity in µM, number only.

Look up and report measured IC50 for this entry: O=C(O)CNCP(=O)(O)O [glyphosate]
9.6

The measurements presented in this section are drawn from paper PMC11588093.
